# system: UniProt P20309
# Sequence (P20309 whole entry, looked up): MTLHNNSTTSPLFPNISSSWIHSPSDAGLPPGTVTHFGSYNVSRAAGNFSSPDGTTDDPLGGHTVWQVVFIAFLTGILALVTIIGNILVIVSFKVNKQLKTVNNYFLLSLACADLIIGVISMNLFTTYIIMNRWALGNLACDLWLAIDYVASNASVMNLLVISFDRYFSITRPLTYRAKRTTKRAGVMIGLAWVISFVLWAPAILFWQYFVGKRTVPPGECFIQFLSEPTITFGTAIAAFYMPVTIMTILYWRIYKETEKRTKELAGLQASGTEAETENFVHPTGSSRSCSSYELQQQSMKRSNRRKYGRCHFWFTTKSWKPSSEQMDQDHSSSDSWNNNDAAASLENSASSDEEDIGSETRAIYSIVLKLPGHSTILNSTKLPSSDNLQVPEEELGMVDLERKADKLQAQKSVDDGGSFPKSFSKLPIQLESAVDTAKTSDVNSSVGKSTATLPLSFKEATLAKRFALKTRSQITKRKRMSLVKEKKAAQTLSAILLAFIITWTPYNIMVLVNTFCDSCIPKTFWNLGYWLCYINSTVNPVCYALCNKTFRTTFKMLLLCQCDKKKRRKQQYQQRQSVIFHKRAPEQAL
# protocol_details: Agonist activity at human muscarinic M3 receptor expressed in CHO cells assessed as calcium mobilization at 1 uM by FLIPR assay relative to control
# Type: functional, cell-based
For each record, write down the corresponding Efficacy.
One number for each entry, in %.

Please review the entries below; each comes with its answer.
compound_structure_string	Efficacy [%]
CCOC(=O)N1CCC(CN2CCC3(CC2)CC(=O)Nc2ncccc23)CC1	21
CCCN1C(=O)CC2(CCN(CC3CCN(C(=O)OCC)CC3)CC2)c2cccnc21	6
CCOC(=O)N1CCC(CN2CCC3(CC2)OC(=O)Nc2ncccc23)CC1	8
CCOC(=O)N1CCC(CN2CCC3(CC2)CC(=O)N(CC)c2ncccc23)CC1	2
CCOC(=O)N1CCC(CN2CCC3(CC2)CC(=O)N(C)c2ncccc23)CC1	4

Next item in the queue.
Please tell me: Efficacy of "CCOC(=O)N1CCC(CN2CCC3(CC2)OC(=O)N(C)c2ncccc23)CC1" , system UniProt P20309?
7
